test system: A498 renal; test: NCI-60 one-dose screen, 48 h (100 = growth as untreated, 0 = no growth, -100 = all killed); settings: 10 µM unless noted
About 83,000 compounds went through this panel and 20% of them were active in at least one assay; those are over-represented in the sample as a whole.
quantity measured: growth (%)
Give just the numeric value; % need not be written.

[
  {
    "compound": "COc1ccc(Sc2[nH]c(C(C)=O)c3ccccc23)cc1",
    "growth, %": -0.948
  },
  {
    "compound": "CC(=O)O[C@@H]1C[C@]2(C)[C@H]3[C@H](O)C[C@@H]4C5=CC(C)(C)CC[C@]5(C)CC[C@@]4(C)[C@]3(C)CC[C@H]2C(C)(C)[C@H]1O",
    "growth, %": 119
  },
  {
    "compound": "CCCCN(CCCC)CC(CN(CC)CC)OC(=O)Nc1ccccc1 (configuration not stated)",
    "growth, %": 117
  }
]

Query: Kindly state the measured growth obtained for "Cc1cc(Cl)cc(CN(Cc2ccccc2)Cc2c(O)ccc3ccccc23)c1O" with A498 renal.
Reply: 76.6

Query: Kindly state the measured growth obtained for "CCN1CCN(Cc2ccc(NC(=O)c3cccc(C#Cc4cccc5[nH]nc(N)c45)c3)cc2C(F)(F)F)CC1" with A498 renal.
Reply: -63.5

Query: Kindly state the measured growth obtained for "COC(=O)c1cncc(C(=O)Nc2ccc(-n3cnc4ccccc43)cc2)c1" with A498 renal.
Reply: 88.3

Query: Kindly state the measured growth obtained for "[2H]c1nc(Nc2ncc3cc(C(=O)N(C)C)n(C4CCCC4)c3n2)c([2H])c([2H])c1N1C([2H])([2H])C([2H])([2H])NC([2H])([2H])C1([2H])[2H]" with A498 renal.
Reply: 76.8

Query: Kindly state the measured growth obtained for "O=C(O)c1cc(N=Nc2ccc(-c3ccc(N=Nc4c(S(=O)(=O)O)cc5ccc(Nc6ccccc6)cc5c4O)cc3)cc2)ccc1O" with A498 renal.
Reply: 99.4

Query: Kindly state the measured growth obtained for "CC1=C/C(=N\N=C2/C=C(C)CC(C)(C)C2)CC(C)(C)C1" with A498 renal.
Reply: 94.4

###

system: EKVX NSCLC; experiment: NCI-60 one-dose screen, 48 h; settings: 10 µM unless noted
This is part of a sample that, as a whole, favours compounds with a hit. Of some 83,000 tested, about 20% had one in any assay. Activity calls are given as the source filed them. The calls were made as follows: active = growth percent below 10; inactive = the rest.
Assign a class; possible classes are active, inactive

Record excerpt, results attached:
[
  {
    "compound": "Cc1cc2ccccc2c[n+]1CC(=O)c1ccc(-c2ccccc2)cc1",
    "class label": "inactive"
  },
  {
    "compound": "COc1ccc(-c2cc(-c3nnc(SCC(=O)Nc4ccc(/C(C)=N\\O)cc4)n3-c3ccccc3)c3cc(OC)ccc3n2)cc1",
    "class label": "inactive"
  },
  {
    "compound": "CCO/C=N/S(=O)(=O)c1cc2c(cc1Cl)NC=NS2(=O)=O",
    "class label": "inactive"
  },
  {
    "compound": "COc1cccc(C(=O)OCCn2nc3c4c(cccc42)C(=O)c2ccccc2-3)c1O",
    "class label": "inactive"
  },
  {
    "compound": "C=C(C)[C@@H]1CC[C@]2(C(=O)OCCOCCOCC[P+](c3ccccc3)(c3ccccc3)c3ccccc3)CC[C@]3(C)[C@H](CC[C@@H]4[C@@]5(C)CC[C@H](OC(C)=O)C(C)(C)[C@@H]5CC[C@]43C)[C@@H]12",
    "class label": "active"
  }
]

Shift focus to the following entry.
Query: So what was the verdict on "c1ccc2nc(N3CCOCC3)c(N3CCCCC3)nc2c1" in this test?
Reply: inactive
